Molecular target: mu opiate receptor (MOR) (Rattus norvegicus, UniProt P33535)
Construct: from tissue; host or cells: striatum (membrane preparation)
Sequence (P33535 whole entry): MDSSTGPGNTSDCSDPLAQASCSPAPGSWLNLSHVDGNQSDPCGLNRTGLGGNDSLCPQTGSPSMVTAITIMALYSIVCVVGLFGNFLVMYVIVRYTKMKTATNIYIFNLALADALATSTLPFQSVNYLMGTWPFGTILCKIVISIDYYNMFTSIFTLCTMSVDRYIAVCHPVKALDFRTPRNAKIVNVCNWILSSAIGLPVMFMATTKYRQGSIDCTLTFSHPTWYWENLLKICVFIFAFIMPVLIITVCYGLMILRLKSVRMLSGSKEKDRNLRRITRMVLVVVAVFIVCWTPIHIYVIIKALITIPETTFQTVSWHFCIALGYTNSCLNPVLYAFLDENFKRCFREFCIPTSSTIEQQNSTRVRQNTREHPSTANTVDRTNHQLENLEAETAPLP
Type: biochemical
# key: entry, value: % DAMGO (0.1 μM)
Report the value in % with no unit label.

CC(=O)c1ccc(S(=O)(=O)N2CCC3(CC2)NC(=O)CN3Cc2ccccc2)cc1 [Compound C0085M]; 105.5

*Q* Could you tell me which % DAMGO (0.1 μM) is on file for CC1CCC(C(C)C)C(OCC(O)Cn2ccc3ccccc32)C1 (stereo not shown) [Compound A0078] ?
*A* 124.9

*Q* Try the compound CS(=O)(=O)c1ccc(S(=O)(=O)N2CCOC23CCN(CC2CC2)CC3)cc1 [Compound C0126M]
*A* 108.5

*Q* Moving on to COc1cc(CC(=O)CC2c3c(cc4c(c3OC)OCO4)CC[N+]2(C)C)cc(OC)c1OC (stereo not shown) [Compound B0008]
*A* 84.0

*Q* Please give the result for COc1ccc(CCC(=O)CC2c3c(cc4c(c3OC)OCO4)CC[N+]2(C)C)c(OC)c1 (stereo not shown) [Compound B0043] too.
*A* 42.4

*Q* Entry O=C(OCc1ccccc1)c1ccc(S(=O)(=O)N2CCC3(CC2)OCCN3S(=O)(=O)c2ccc(C(=O)OCc3ccccc3)cc2)cc1 [Compound C0042] please
*A* 98.9

*Q* Another compound to look at: CC1CN(CC(O)COc2ccc(Cl)cc2)CC(C)O1 (stereo not shown) [Compound A0047]
*A* 118.8

*Q* Ok, now CC1CCC(C(C)C)C(OCC(O)CN2CCSCC2)C1 (stereo not shown) [Compound A0003]
*A* 118.3

*Q* Ok, now CC(=O)N1CCSC12CCN(S(=O)(=O)c1ccc([N+](=O)[O-])cc1)CC2 [Compound C0050]
*A* 76.1

*Q* How about this compound: O=S(=O)(c1ccc(-c2ccccc2)cc1)N1CCC2(CC1)OCCN2S(=O)(=O)c1ccc(-c2ccccc2)cc1 [Compound C0010]
*A* 80.7

*Q* Another compound to check: COc1c2c(cc3c1C(CC(=O)c1ccncc1)[N+](C)(C)CC3)OCO2 (stereo not shown) [Compound B0005]
*A* 50.5

*Q* Next entry: O=C1CN(Cc2ccccc2)C2(CCN(C3CCCCC3)CC2)N1 [C0137M (P7)]
*A* 95.6

* * *

Readings of Concentration of FLNA-Binding Compound as Agonist 0.1 μM for the listed molecules
Target: mu opiate receptor (MOR) (Rattus norvegicus)
Construct: from tissue; host or cells: striatum (membrane preparation)
Format: biochemical
Conditions: [35S]GTPγS binding to Gαo in striatal membranes; compound 0.1 μM
The reply should be a number in %, with the unit left off.

O=C(c1ccc([N+](=O)[O-])cc1)N1CCC2(CC1)OCCN2C(=O)c1ccc([N+](=O)[O-])cc1; 145.4

*Q* I have this molecule here, COc1ccc(OCC(O)CN2CCc3ccccc3C2)cc1 (stereo not shown) , and I need its recorded Concentration of FLNA-Binding Compound as Agonist 0.1 μM.
*A* 78.5

*Q* # iterate: N#Cc1ccccc1S(=O)(=O)N1CCC2(CC1)OCCN2S(=O)(=O)c1ccccc1C#N
*A* 122.0

*Q* Next record, please: O=S(=O)(c1ccc(C(F)(F)F)cc1)N1CCC2(CC1)OCCN2S(=O)(=O)c1ccc(C(F)(F)F)cc1
*A* 96.8

*Q* And then CC(=O)c1ccc(S(=O)(=O)N2CCC3(CC2)NC(=O)CN3Cc2ccccc2)cc1 [Compound C0085M] , what is it?
*A* 211.6

*Q* Try this molecule too: COc1ccccc1CC(=O)CC1c2c(cc3c(c2OC)OCO3)CC[N+]1(C)C (stereo not shown)
*A* 128.5

*Q* Proceed to COc1c2c(cc3c1OCO3)CCN(CC(O)COC1CC(C)CCC1C(C)C)C2 (stereo not shown)
*A* 110.3

*Q* Would you mind doing CC1CN(CC(O)COc2ccccc2)CC(C)O1 (stereo not shown) as well?
*A* 58.6

*Q* Next entry: O=S(=O)(c1ccc(Br)cc1C(F)(F)F)N1CCC2(CC1)OCCN2S(=O)(=O)c1ccc(Br)cc1C(F)(F)F
*A* 107.2

*Q* And O=S(=O)(c1ccc2ccccc2c1)N1CCC2(CC1)OCCN2S(=O)(=O)c1ccc2ccccc2c1 [Compound C0140M] ?
*A* 126.1

*Q* # iterate: COc1cccc(CCC(=O)CC2c3c(cc4c(c3OC)OCO4)CC[N+]2(C)C)c1 (stereo not shown)
*A* 122.5

*Q* // repeat for O=S(=O)(c1cccc2cccnc12)N1CCC2(CC1)OCCN2S(=O)(=O)c1cccc2cccnc12 [Compound C0143M] and report
*A* 81.0

*Q* Thanks! And COc1c2c(cc3c1C(CC(=O)Cc1ccccc1C)[N+](C)(C)CC3)OCO2 (stereo not shown) ?
*A* 210.8

*Q* One more molecule: CC(=O)c1ccc(C(=O)N2CCOC23CCN(S(=O)(=O)c2ccc(C(C)=O)cc2)CC3)cc1
*A* 104.0

*Q* Next record, please: CC(=O)c1ccc(OCC(O)CN2CC(C)OC(C)C2)cc1 (stereo not shown)
*A* 176.2

*Q* Repeat with COc1ccc(C(=O)CC2c3c(cc4c(c3OC)OCO4)CC[N+]2(C)C)cc1 (stereo not shown)
*A* 155.8

*Q* Also need COc1ccc(OCC(O)CN2CC(C)OC(C)C2)cc1 (stereo not shown) , thanks.
*A* 233.7

*Q* Please do the same for CN(C)c1cccc(OCC(O)CN2CCc3ccccc3C2)c1 (stereo not shown) as well.
*A* 151.0

*Q* Same for COc1cc(CC(=O)CC2c3c(cc4c(c3OC)OCO4)CC[N+]2(C)C)cc(OC)c1OC (stereo not shown)
*A* 148.3

*Q* Queued: CC1CCC(C(C)C)C(OCC(O)CN2CCCC2)C1 (stereo not shown)
*A* 94.3

*Q* Consider next the molecule CC1CCC(C(C)C)C(OCC(O)CN(C(C)C)C(C)C)C1 (stereo not shown) in the same way.
*A* 177.9

*Q* What do you have for COc1ccccc1CC(O)CC1c2c(cc3c(c2OC)OCO3)CCN1C (stereo not shown) ?
*A* 107.2

* * *

Molecular target: mu opiate receptor (MOR) (Rattus norvegicus, UniProt P33535)
Construct: from tissue; host or cells: striatum (membrane preparation)
Format: biochemical
quantity kind: % DAMGO + BFNA (%)
Record the value in %, omitting the unit from your answer.

COc1ccc(N2CCN(CC(O)COC3CC(C)CCC3C(C)C)CC2)c(OC)c1 (centres unmarked); 461.9
CC(=O)c1ccc(S(=O)(=O)N2CCC3(CC2)NC(=O)C(Cc2cnc[nH]2)N3S(=O)(=O)c2ccc(C(C)=O)cc2)cc1 (centres unmarked) [Compound C0084M]; 280.4
O=S(=O)(c1ccc2ccccc2c1)N1CCC2(CC1)OCCN2S(=O)(=O)c1ccc2ccccc2c1 [Compound C0140M]; 211.2
O=C1CN(Cc2ccccc2)C2(CCN(C3CCCCC3)CC2)N1 [C0137M (P7)]; 115.1
CC1CCC(C(C)C)C(OCC(O)CN2CCCC2)C1 (centres unmarked); 83.8
CC1CCC(C(C)C)C(OCC(O)CN2CCN(CCN3CCOCC3)CC2)C1 (centres unmarked); 177.4

*Q* Report % DAMGO + BFNA for CC1CN(CC(O)COc2cc(F)cc(F)c2)CC(C)O1 (centres unmarked) please.
*A* 189.4

*Q* Quick one: CC1CCC(C(C)C)C(OCC(O)CN2CCSCC2)C1 (centres unmarked)
*A* 64.5

* * *

Below, each entry is listed alongside its reported % DAMGO + BFNA.
Target: mu opiate receptor (MOR) (Rattus norvegicus)
Construct: from tissue; host or cells: striatum (membrane preparation)
Type: biochemical
Please answer using the number first and the unit second.

In the examples that follow, each entry is paired with its recorded % DAMGO + BFNA.
COc1ccc(OCC(O)CN2CCOc3ccccc32)cc1 (stereo not shown); 119.4%
O=S(=O)(c1csc2ccccc12)N1CCC2(CC1)OCCN2S(=O)(=O)c1csc2ccccc12 [Compound C0150M]; 173.2%
CC1CCC(C(C)C)C(OCC(O)CN2CCOCC2)C1 (stereo not shown); 130.9%
C=CCN1CCC2(CC1)OCCN2S(=O)(=O)c1ccc(C(C)=O)cc1 [Compound C0096M]; 577.7%
O=S(=O)(c1ccc(Cl)cc1)N1CCC2(CC1)OCCN2S(=O)(=O)c1ccc(Cl)cc1; 97.1%

*Q* % DAMGO + BFNA of COc1ccc(C(=O)N2CCC3(CC2)OCCN3S(=O)(=O)c2ccc(OC)cc2)cc1 on mu opiate receptor (MOR) (Rattus norvegicus)?
*A* 162.1%

* * *

Target: mu opiate receptor (MOR) (Rattus norvegicus)
Construct: from tissue; host or cells: striatum (membrane preparation)
Assay type: biochemical
Details: [35S]GTPγS binding to Gαo in striatal membranes; compound 1 μM plus 1 μM β-funaltrexamine (MOR antagonist)
quantity kind: Concentration of FLNA-Binding Compound as Agonist 1 μM + BFNA (%)
Answer in %, number only, no unit symbol.

COc1c2c(cc3c1C(CC(=O)Cc1ccccc1F)[N+](C)(C)CC3)OCO2 (centres unmarked); 117.5
COc1ccc(CCC(=O)CC2c3c(cc4c(c3OC)OCO4)CCN2C)cc1 (centres unmarked); 68.4
N#Cc1ccccc1S(=O)(=O)N1CCC2(CC1)OCCN2S(=O)(=O)c1ccccc1C#N; 65.8
CC1CN(CC(O)COc2ccccc2C(C)C)CC(C)O1 (centres unmarked); 22.3

*Q* API: value(readout= Concentration of FLNA-Binding Compound as Agonist 1 μM + BFNA, system= mu opiate receptor (MOR) (Rattus norvegicus), query= COc1ccc(CCC(=O)CC2c3c(cc4c(c3OC)OCO4)CC[N+]2(C)C)cc1OC (centres unmarked) )
*A* 43.1

*Q* Now this one: O=S(=O)(c1ccc(C(F)(F)F)cc1Br)N1CCC2(CC1)OCCN2S(=O)(=O)c1ccc(C(F)(F)F)cc1Br
*A* 177.1

*Q* Also, COc1ccccc1CC(=O)CC1c2c(cc3c(c2OC)OCO3)CC[N+]1(C)C (centres unmarked) please.
*A* 87.5

*Q* Okay, and CC1CCC(C(C)C)C(OCC(O)CN2CCCc3ccccc32)C1 (centres unmarked) ?
*A* 98.1

*Q* Would you mind doing OC(COc1cccc(C(F)(F)F)c1)CN1CCc2ccccc2C1 (centres unmarked) as well?
*A* 114.1

*Q* Again, but for CC1CCC(C(C)C)C(OCC(O)CN2CCN(CCCN3CCOCC3)CC2)C1 (centres unmarked)
*A* 120.8

*Q* Now the molecule CC1CN(CC(O)COc2ccccc2)CC(C)O1 (centres unmarked)
*A* 52.2

*Q* Also check COc1ccc(C(=O)CC2c3c(cc4c(c3OC)OCO4)CC[N+]2(C)C)c(F)c1 (centres unmarked)
*A* 21.6

*Q* Follow-up item: COc1cccc(S(=O)(=O)N2CCC3(CC2)OCCN3S(=O)(=O)c2cccc(OC)c2)c1
*A* 3.9

*Q* Also check COc1ccccc1C(=O)CC1c2c(cc3c(c2OC)OCO3)CC[N+]1(C)C (centres unmarked)
*A* 137.7

*Q* Check COc1ccc(CCC(=O)CC2c3c(cc4c(c3OC)OCO4)CC[N+]2(C)C)cc1 (centres unmarked) too.
*A* 72.2

*Q* // repeat for CC1CN(CC(O)COc2cc(F)cc(F)c2)CC(C)O1 (centres unmarked) and report
*A* 140.0

*Q* Let us now turn to COc1cc(C(=O)CC2c3c(cc4c(c3OC)OCO4)CC[N+]2(C)C)cc(OC)c1OC (centres unmarked)
*A* 106.2
